procedureSummary: In vivo pharmacokinetics, current example (i.v., i.n., p.o.), healthy Balb-c mice
measurementConditions: Balb-c, mouse, in vivo, po
endpoint: Kp
# answer = number (no unit)

-- ask Return Kp (reported value) for this molecule: COc1nc2ccc(Br)cc2cc1[C@@H](c1ccccc1)[C@@](O)(CCN(C)C)c1cccc2ccccc12
-- reply 11

====

procedureSummary: In vivo pharmacokinetics, current example (i.v., i.n., p.o.), healthy Balb-c mice
measurementConditions: Balb-c, mouse, in vivo, iv
endpoint: Kp
# answer = number (no unit)

-- ask Return Kp (reported value) for this compound: COc1nc2ccc(Br)cc2cc1[C@@H](c1ccccc1)[C@@](O)(CCN(C)C)c1cccc2ccccc12 [BDQ, bedaquiline]
-- reply 15
